System: AR
Construct: endogenous AR in ARE14 reporter cells (22Rv1-derived)
Method notes: cells
Design: species or system ARE14; ARE-driven firefly luciferase reporter; AR transcriptional activity normalised to 1 nM R1881
Condition description: 24 h; with 1 nM R1881; read-out: % of control remaining
Method: ARE14 cells were seeded (40,000 cells/well) into the Nunc™ MicroWell™ 96-well optical plate (Thermo Fisher Scientific, Waltham, MA, USA) on the second day. The cultivation medium was discarded, and the cells were washed with PBS. Analyzed compounds were dissolved in medium supplemented with CSS (agonist mode) or CSS with 1 nM R1881 (antagonist mode) and added to cells, including CSS and 1 nM R1881 controls. […]

Compound	activity at 10 µM [%]
C[C@]12CC[C@H]3[C@@H](CC=C4C[C@@H](O)CC[C@@]43C)[C@@H]1CC[C@@H]2Cc1cc(-c2ccccc2)no1 [24e]	101
CCCCc1cc(C[C@H]2CC[C@H]3[C@@H]4CC=C5C[C@@H](O)CC[C@]5(C)[C@H]4CC[C@]23C)on1 [24d]	113
C[C@]12CC[C@H]3[C@@H](CC=C4C[C@@H](O)CC[C@@]43C)[C@@H]1CC[C@@H]2CC(=O)/C(OC(=O)n1ccnc1)=C(\N)C1CC1	62
CC(C)(O)c1cc(C[C@H]2CC[C@H]3[C@@H]4CC=C5C[C@@H](O)CC[C@]5(C)[C@H]4CC[C@]23C)on1 [24j]	84.8

----------
Target under test: CYP17A1 (Homo sapiens, UniProt P05093)
Construct: recombinant human CYP17A1, purified
Sequence (P05093 whole entry): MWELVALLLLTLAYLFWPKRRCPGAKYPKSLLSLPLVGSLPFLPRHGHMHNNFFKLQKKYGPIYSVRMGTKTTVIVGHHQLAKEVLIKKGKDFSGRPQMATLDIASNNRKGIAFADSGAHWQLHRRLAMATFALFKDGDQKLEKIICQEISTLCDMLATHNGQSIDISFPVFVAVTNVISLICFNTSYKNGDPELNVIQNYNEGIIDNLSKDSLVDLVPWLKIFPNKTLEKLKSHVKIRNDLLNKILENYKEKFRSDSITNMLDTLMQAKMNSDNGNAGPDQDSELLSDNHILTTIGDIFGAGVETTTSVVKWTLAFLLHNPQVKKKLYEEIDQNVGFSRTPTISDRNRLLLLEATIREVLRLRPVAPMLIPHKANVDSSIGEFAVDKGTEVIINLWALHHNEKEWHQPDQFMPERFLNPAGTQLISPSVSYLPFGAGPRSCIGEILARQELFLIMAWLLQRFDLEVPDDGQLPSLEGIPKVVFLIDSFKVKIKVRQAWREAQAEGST
Method notes: UV-Vis spectrophotometric titration (type I spectral response)
Type: binding
Condition description: read-out: Kd
pKd: −log10 of the molar value.
Attribute: pKd

Compound	pKd
C[C@]12CC[C@H]3[C@@H](CC=C4C[C@@H](O)CC[C@@]43C)[C@@H]1CC[C@@H]2Cc1cc(CO)no1 [compound 32]	4.87
C[C@]12CC[C@H]3[C@@H](CC=C4C[C@@H](O)CC[C@@]43C)[C@@H]1CC[C@@H]2Cc1ccno1 [24a]	6.89
CC(C)(O)c1cc(C[C@H]2CC[C@H]3[C@@H]4CC=C5C[C@@H](O)CC[C@]5(C)[C@H]4CC[C@]23C)on1 [24j]	5.72
CCCCc1cc(C[C@H]2CC[C@H]3[C@@H]4CC=C5C[C@@H](O)CC[C@]5(C)[C@H]4CC[C@]23C)on1 [24d]	5.82

----------
Target under test: CYP17A1 (Homo sapiens)
Construct: recombinant human CYP17A1, purified
Method notes: UV-Vis spectrophotometric titration (type II spectral response)
Type: binding

Compound structure string	Kd
C[C@]12CC[C@H](O)CC1=CC[C@@H]1[C@@H]2CC[C@]2(C)C(c3cccnc3)=CC[C@@H]12	< 1 µM

// provenance: paper PMC9656436
